system: SK-OV-3 ovarian; assay: NCI tumour cell line growth inhibition, 48 h
For each of the compounds below, state its TGI.
Give bare numbers, in µM.

Examples with answers:
Compound | Quantity unit | TGI
C[C@]12CC[C@H]3[C@@H](CC=C4C[C@@H](O)CC[C@@]43C)[C@@H]1C/C(=C\c1cccnc1)[C@@H]2O | µM | 34.2
CCN(CC)c1c(C(C)(C)C)c(=O)n2ccsc2c1OC(C)=O | µM | 36
COC1C(OC(=O)c2ccc(C)[nH]2)C(O)C(Oc2ccc3c(O)c(NC(=O)c4ccc(O)c(CC=C(C)C)c4)c(=O)oc3c2Cl)OC1(C)C (centres undefined) | µM | 54.6

Kindly review the next compound as well.
Prompt: Fill in: TGI of CN1CCCCC1CCN1c2ccccc2Sc2ccc(Br)cc21 (centres undefined) is ___
Response: 12.3

###

tested on: SNB-75 CNS; test: NCI tumour cell line growth inhibition, 48 h
Measurement label: TGI

Compound | Study system | Measurement label | Endpoint value
CC1OC(OC2C(O)CC(OC3C(O)CC(OC4CCC5(C)C(CCC6C5CCC5(C)C(C7=CC(=O)OC7)C(O)CC65O)C4)OC3C)OC2C)CC(O)C1O (centres undefined) | SNB-75 CNS | TGI | 5.37 µM

Give one value of TGI per listed compound.
1. CCOc1ccc2nc(NC(=O)C(=O)C3C(=O)C(CC4C(=O)c5ccccc5C4=O)C(=O)CC3(C)C)sc2c1 (centres undefined)
2. CC1(C)CC(O)CC(C)(C)N1O
3. COc1ccc(/C=C/C(=N\NC(=O)c2ccccc2)c2sc(Nc3ccc([N+](=O)[O-])cc3)nc2C)cc1OC
4. CC(C)=CCC[C@@H](C)C1=C(O)C(N[C@H](C)c2ccccc2)=C(C)C(=O)C1=O
5. O=[N+]([O-])c1ccccc1N=Nc1c(O)[nH]c2c(Cl)cccc12
6. C[N+](C)(CCNc1ccc(NCC[N+](C)(C)Cc2ccc([N+](=O)[O-])cc2)c2c1C(=O)c1c(O)ccc(O)c1C2=O)Cc1ccc([N+](=O)[O-])cc1
7. CC(=O)ON(OCc1ccc2ccccc2c1)C(C)=O
8. O=c1[nH]c2cc(Cl)ccc2nc1/C(=N\Nc1ccccc1)C(O)c1ccc2c(c1)OCO2 (centres undefined)

Response:
1. > 100 µM
2. > 100 µM
3. 17.8 µM
4. > 56.4 µM
5. 51.7 µM
6. > 50 µM
7. > 100 µM
8. > 100 µM

###

test system: PC-3 prostate; test: NCI tumour cell line growth inhibition, 48 h
Can you tell me TGI for the items I'm about to list?

Some solved entries appear below for comparison.
Compound | TGI
NC(CCC(=O)c1ccccn1)C(=O)O (configuration not stated) | > 100 µM
CC[C@H](C)[C@H](NC(=O)[C@H]1CCCCN1C)C(=O)N(C)[C@H](CCc1nc(C(=O)N[C@@H](Cc2ccccc2)C[C@H](C)C(=O)O)cs1)C(C)C | > 25 µM
CCCN1C(=O)/C(=C/c2ccc(SC(F)(F)F)cc2)SC1=Nc1ccc(OC)cc1 | > 50 µM
CC(C)(C)N/N=C(/Cc1nc2c3c(ccc2[nH]c1=O)C(=O)c1ccccc1C3=O)C(=O)NC1=C(Cl)C(=O)c2ccccc2C1=O | > 100 µM
ClC1=NSSC1(Cl)Cl | > 100 µM

Batch request: TGI for each of the following compounds.
1. Cc1ccc(S(=O)(=O)OC[C@@]2(C)CC[C@]3(C)CC[C@]4(C)C(=C3C2)C=C[C@@H]2[C@@]3(C)CCCNC(C)(C)[C@@H]3CC[C@]24C)cc1
2. CC(=O)ON(OCc1ccc2ccccc2c1)C(C)=O

Response:
1: 2.98 µM; 2: > 100 µM

###

system: NCI-H23 lung; assay: NCI tumour cell line growth inhibition, 48 h
Measurement label: TGI

See these solved cases before continuing.
Compound | Endpoint value
COC(=O)[C@@H]1c2c(oc3cc(CO)cc(O)c3c2=O)C=C[C@H]1O | 36 µM
CCCC1C[C@H]2CCCCN2[C@H]2CCCN12 (stereo partly specified) | > 100 µM
N#C/C(=C\c1ccc(O)cc1)C(N)=O | > 100 µM

Take each entry in turn and give its TGI.
1. COC1OC2COC(=O)c3cc(O)c(O)c(O)c3-c3c(cc(O)c(O)c3O)C(=O)OC2C(O)C1O (stereo unspecified)
2. CN(CCN)[C@H](CSSC[C@@H](c1ccccc1O)N(C)CCN)c1ccccc1O

Response:
1. > 100 µM
2. 28.5 µM

I would be grateful if you could provide TGI for each of the following entries.
1. COc1cc2c(c(OC)c1OC)C(=O)c1c(O)cc(C)c(OC)c1C2=O
2. CCc1ccc2c(c1)C(=O)c1c-2n(CCCN)c(=O)c2cc(OC)c(OC)cc12

Response:
1: > 100 µM; 2: 3.3 µM

Report TGI for every entry below.
1. COc1ccc(-c2nc3ccccc3c(=O)[nH]2)cc1
2. Brc1ccc2[nH]c3c(C4=NCCC4)nccc3c2c1
3. NC(=S)NNCC(=O)CC(O)(C(F)(F)F)C(F)(F)Cl (stereo unspecified)
4. Cc1ccc(-c2nc(NCCOCCOCCN)nc(N3CCN(c4ccccn4)CC3)n2)cc1
5. Cc1nc2ccc(NCCN(C)C)c3c(=O)c4ccccc4n1c23
6. N=C(N)c1ccc2oc3ccc(C(=N)N)cc3c(=O)c2c1

Response:
1: > 100 µM; 2: > 79.7 µM; 3: > 100 µM; 4: 32 µM; 5: 9.94 µM; 6: > 100 µM

###

test system: PC-3 prostate; test: NCI tumour cell line growth inhibition, 48 h; in the data active means GI50 below about 0.43 µM; inactive means the rest
# output must be one of active, inactive

Compound | Label class
CN1CCCCC1CCN1c2ccccc2Sc2ccc(Br)cc21 (centres undefined) | inactive

Prompt: Lab log entry: Cc1ccc(S(=O)(=O)OC[C@@]2(C)CC[C@]3(C)CC[C@]4(C)C(=C3C2)C=C[C@@H]2[C@@]3(C)CCCNC(C)(C)[C@@H]3CC[C@]24C)cc1 — outcome as called in the assay?
Response: inactive

Prompt: And CCSC[C@@H]1C[C@](O)(c2ccccc2)[C@@H](c2ccccc2)O1 ?
Response: inactive

Prompt: Input COc1cc(C(=O)c2cnc(-c3c[nH]c4cccc(C)c34)[nH]2)cc(OC)c1OC
Response: active

Prompt: Queued: Cc1cc(N2CCC(N3CCCC3)CC2)nc(/N=C(\N)Nc2ccc(Cl)c(Cl)c2)n1
Response: inactive

Prompt: Try CNC(=O)CCN1CCN(CC/C=C2\c3ccccc3Sc3ccc(Cl)cc32)CC1 next.
Response: inactive

Prompt: Another compound to look at: O=c1c(I)c[nH]cc1I
Response: inactive

Prompt: Cool, now CCn1cc(C(=O)O)c(=O)c2cc(F)c(N3CCN(S(=O)(=O)c4ccc(Cl)cc4Cl)CC3)cc21
Response: inactive

Prompt: Same for Cc1cc(NC(=O)NCc2ccc(N3C(N)=NC(N)=NC3(C)C)cc2)ccc1S(=O)(=O)F
Response: active

###

system: SK-OV-3 ovarian; experiment: NCI tumour cell line growth inhibition, 48 h; in the data active means GI50 below about 0.43 µM; inactive means the rest
Hello, when you answer, please use one of the following outcomes: 1 for active, 0 for inactive

Solved cases below.
Compound | Label class
CCn1c(-c2nonc2N)nc2ccccc21 | 0
CCn1cc(C(=O)O)c(=O)c2cc(F)c(N3CCN(S(=O)(=O)c4ccc(Cl)cc4Cl)CC3)cc21 | 0
C=CCC(N[C@@H](CO)c1ccccc1)c1ccc2ccccc2n1 (some centres not stated) | 0
S=c1ssnc1-c1cc2ccccc2o1 | 0

Prompt: Could you please tell me the result logged for N#C[S-].[La+3].c1ccc(-c2ccccn2)nc1.c1ccc(-c2ccccn2)nc1.c1ccc(-c2ccccn2)nc1 in this assay?
Response: 0

Prompt: Also COc1cc(N=Nc2cc(Cc3ccc(N(C)C)cc3)c(N)cc2N(C)C)c2ncccc2c1 , if possible.
Response: 1

Prompt: Also CCCS(=O)(=O)Nc1ccc(F)c(C(=O)c2c[nH]c3ncc(-c4ccc(OCCCC5CCCCN5)nc4)cc23)c1F (configuration not stated) , if possible.
Response: 0

###

tested on: SNB-75 CNS; assay: NCI tumour cell line growth inhibition, 48 h
Measurement label: GI50

Compound | GI50
CC[C@H](C)[C@H](NC(=O)[C@H]1CCCCN1C)C(=O)N(C)[C@H](CCc1nc(C(=O)N[C@@H](Cc2ccccc2)C[C@H](C)C(=O)O)cs1)C(C)C | 0.0621 µM
CC1[C@@]2(CCC(C)(C)O2)O[C@@H]2C=C3C4CCC5Cc6nc7c(nc6C[C@@]5(C)C4C[C@H](O)[C@@]3(C)[C@]12O)CC1CCC2C3=C[C@H]4O[C@@]5(O[C@@](C)(CO)C[C@@H]5O)C(C)[C@@]4(O)[C@]3(C)[C@@H](O)CC2[C@]1(C)C7 (stereo partly drawn) | < 0.000365 µM
CC(=O)ON(OCc1ccc2ccccc2c1)C(C)=O | 96.6 µM
Cn1c(=O)c(-c2ccccc2Cl)cc2cnc(NC3CCOCC3)nc21 | 3.82 µM
COc1cc(C(=O)c2cnc(-c3c[nH]c4cccc(C)c34)[nH]2)cc(OC)c1OC | 0.00257 µM

Each compound below has a recorded value; state its GI50.
1. CCn1c(-c2nonc2N)nc2ccccc21
2. NC(=NCCCCCCN=C(N)/N=C(\N)Nc1ccc(Cl)cc1)/N=C(\N)Nc1ccc(Cl)cc1

Response:
1. > 25 µM
2. 1.03 µM
